Biological target: UniProt:P32238
Sequence (P32238 whole entry): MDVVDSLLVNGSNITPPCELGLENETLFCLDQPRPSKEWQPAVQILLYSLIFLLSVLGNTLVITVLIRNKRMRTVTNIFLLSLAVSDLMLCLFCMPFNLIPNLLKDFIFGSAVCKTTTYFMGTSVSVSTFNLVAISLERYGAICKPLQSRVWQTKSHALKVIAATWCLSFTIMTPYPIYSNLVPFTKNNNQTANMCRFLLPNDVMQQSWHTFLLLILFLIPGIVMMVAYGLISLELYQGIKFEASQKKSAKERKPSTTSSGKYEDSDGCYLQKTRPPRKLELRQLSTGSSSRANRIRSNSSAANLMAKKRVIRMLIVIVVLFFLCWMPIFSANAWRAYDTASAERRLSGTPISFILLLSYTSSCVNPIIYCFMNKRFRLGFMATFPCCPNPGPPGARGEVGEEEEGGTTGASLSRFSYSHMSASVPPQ
Experiment: Displacement of [111In]DTPA-Glu-Gly-[Tyr27(SO3H)]-CCK8 from human CCK1 receptor in A431 cells
Format: cell-based, A-431
pIC50: −log10 of the molar value.
measure-name: pIC50

{"columns": ["compound", "target-of-assay", "measured"],
 "data": [
  ["CCCCCN(CCCOC)C(=O)C(CCC(=O)O)NC(=O)c1ccc(Cl)c(Cl)c1 (stereo not given) [LOXIGLUMIDE]", "UniProt:P32238", 6.71],
  ["CC(NC(=O)c1ccccc1NC(=O)c1cc2ccccc2[nH]1)C(=O)O (racemic)", "UniProt:P32238", 5.55]
]}

1: O=C(/C=C/c1ccccc1)Nc1ccccc1C(=O)NC(Cc1ccccc1)C(=O)O (racemic)
2: CC(=O)N/C(=C/c1ccccc1)C(=O)Nc1ccccc1C(=O)NC(Cc1ccccc1)C(=O)O (racemic)
3: O=C(Nc1ccccc1C(=O)NC(Cc1ccccc1)C(=O)O)c1cc2ccccc2[nH]1 (racemic)
Asked: Returns the items ordered by pIC50, from maximum to minimum. Write out the labels following the order that was asked for.
Given back: 3, 1, 2
(3: 6.71, 1: 5.40, 2: 4.90)
